target: Small conductance calcium-activated potassium channel protein 3 (Rattus norvegicus); test: Ratio of concentration drug to dequalinium to cause 50% inhibition of SKca channel-mediated after-hypepolarization in rat sympathetic neurons; assay type: cell-based; details: Sympathetic neuron
Quantity name: EMR
Would you mind answering with just the numeric figure?

Nc1cc[n+](CCCC=C(CCCC[n+]2ccc(N)c3ccccc32)CCCC[n+]2ccc(N)c3ccccc32)c2ccccc12 :: 0.1
c1ccc2c(NCCCCCN(CCCNc3ccnc4ccccc34)Cc3cc(OCCCNc4ccnc5ccccc45)cc(OCCCNc4ccnc5ccccc45)c3)ccnc2c1 :: 0.23
c1ccc2c(NCCCOc3ccc(CCNc4ccnc5ccccc45)cc3OCCCNc3ccnc4ccccc34)ccnc2c1 :: 0.31

Query: EMR; subject: c1ccc2c(NCCCCCN(CCCNc3ccnc4ccccc34)c3cc(OCCCNc4ccnc5ccccc45)cc(OCCCNc4ccnc5ccccc45)c3)ccnc2c1
0.17

====

target: Small conductance calcium-activated potassium channel protein 3 (Rattus norvegicus) (UniProt P70605); assay: Ratio of concentration drug to dequalinium to cause 50% inhibition of SKca channel-mediated after-hypepolarization in rat sympathetic neurons; type: cell-based; settings: Sympathetic neuron
Sequence (P70605 whole entry): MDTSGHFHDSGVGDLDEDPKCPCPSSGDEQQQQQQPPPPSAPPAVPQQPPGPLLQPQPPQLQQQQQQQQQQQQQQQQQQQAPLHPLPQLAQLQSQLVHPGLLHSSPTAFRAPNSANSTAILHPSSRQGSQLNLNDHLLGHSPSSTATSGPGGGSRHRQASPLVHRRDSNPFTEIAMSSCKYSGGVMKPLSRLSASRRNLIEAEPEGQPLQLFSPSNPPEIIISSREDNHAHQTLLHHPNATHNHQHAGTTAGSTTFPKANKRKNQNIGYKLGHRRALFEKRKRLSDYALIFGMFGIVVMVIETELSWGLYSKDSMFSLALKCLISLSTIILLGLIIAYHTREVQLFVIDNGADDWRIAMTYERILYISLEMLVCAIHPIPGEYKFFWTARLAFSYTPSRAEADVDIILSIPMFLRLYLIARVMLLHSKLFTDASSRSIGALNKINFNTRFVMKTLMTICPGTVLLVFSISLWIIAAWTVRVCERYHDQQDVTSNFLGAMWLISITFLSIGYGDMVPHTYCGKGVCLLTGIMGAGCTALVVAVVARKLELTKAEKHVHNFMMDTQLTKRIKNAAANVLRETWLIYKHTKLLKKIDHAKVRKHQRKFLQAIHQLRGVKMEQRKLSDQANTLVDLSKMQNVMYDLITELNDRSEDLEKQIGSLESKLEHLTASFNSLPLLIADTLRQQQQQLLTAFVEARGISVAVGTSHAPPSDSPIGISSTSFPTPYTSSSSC
Catalogue of EMR readings, one per entry.
Would you mind answering with just the numeric figure?

// known answers, use as guide
c1ccc2c(NCCCNc3cc(OCCCNc4ccnc5ccccc45)cc(OCCCNc4ccnc5ccccc45)c3)ccnc2c1 :: 0.26
c1cc2cc(c1)C[n+]1ccc(c3ccccc31)NCc1ccc(cc1)CNc1cc[n+](c3ccccc13)C2 :: 0.01
c1cc(OCCCNc2ccnc3ccccc23)c(OCCCNc2ccnc3ccccc23)c(OCCCNc2ccnc3ccccc23)c1 :: 0.23
c1ccc2c(NCCCNCc3cc(OCCCNc4ccnc5ccccc45)cc(OCCCNc4ccnc5ccccc45)c3)ccnc2c1 :: 0.48
N=C(N)NCc1ccc(/C=C\c2ccc(CNC(=N)N)cc2)cc1 :: 59

Query: EMR; subject: Cc1cc(N)c2ccccc2[n+]1CCCCCCCCCC[n+]1c(C)cc(N)c2ccccc21
1

Query: EMR; subject: CC[n+]1ccc(NCCCOc2cccc(OCCCNc3cc[n+](CC)c4ccccc34)c2OCCCNc2cc[n+](CC)c3ccccc23)c2ccccc21
0.16

Query: EMR; subject: c1ccc2c(c1)c1cc[n+]2CCCCC[n+]2ccc(c3ccccc32)NCCCCCN1
0.003

Query: EMR; subject: NCCCCCCCCN(CCCNc1ccnc2ccccc12)C(=O)/C=C/C(=O)NCCCNc1ccnc2ccccc12
0.59

Query: EMR; subject: N=C(N)NCCCNC(=O)/C=C/C(=O)N(CCCNC(=N)N)Cc1ccc(-c2ccc(CN)cc2)cc1
33

====

molecular target: Small conductance calcium-activated potassium channel protein 3 (Rattus norvegicus, UniProt P70605); test: Inhibition of SKca channel-mediated after-hypepolarization in rat sympathetic neurons
Sequence (P70605 whole entry): as above
Catalogue of pIC50 readings, one per entry.
Note: pIC50 values are expressed as the negative base-10 logarithm of concentration in M.

// known answers, use as guide
c1ccc2c(NCCCOc3ccc(CCNc4ccnc5ccccc45)cc3OCCCNc3ccnc4ccccc34)ccnc2c1 :: 6.57
NCCCCCCCCN(CCCNc1ccnc2ccccc12)C(=O)/C=C/C(=O)NCCCNc1ccnc2ccccc12 :: 6.31
c1ccc2c(NCCCCCN(CCCNc3ccnc4ccccc34)Cc3cc(OCCCNc4ccnc5ccccc45)cc(OCCCNc4ccnc5ccccc45)c3)ccnc2c1 :: 6.89
N=C(N)NCCCNC(=O)/C=C/C(=O)N(CCCCCCCCN)CCCNC(=N)N :: 4.57
c1cc(OCCCNc2ccnc3ccccc23)c(OCCCNc2ccnc3ccccc23)c(OCCCNc2ccnc3ccccc23)c1 :: 6.89

Query: pIC50; subject: N=C(N)NCCCNC(=O)/C=C/C(=O)N(CCCNC(=N)N)Cc1ccc(-c2ccc(CN)cc2)cc1
4.77

Query: pIC50; subject: NC(N)=NCc1ccc(/C=C\c2ccc(CN=C(N)N)cc2)cc1
4.60

Query: pIC50; subject: c1ccc2c(NCCCNc3cc(OCCCNc4ccnc5ccccc45)cc(OCCCNc4ccnc5ccccc45)c3)ccnc2c1
6.66

====

molecular target: Small conductance calcium-activated potassium channel protein 3 (Rattus norvegicus); assay: Inhibition of SKca channel-mediated after-hypepolarization in rat sympathetic neurons
Quantity name: IC50 (nM)
Hi! Could you send only the number? It should be in nM, unit omitted.

Query: IC50; subject: c1ccc2c(NCCCNCc3cc(OCCCNc4ccnc5ccccc45)cc(OCCCNc4ccnc5ccccc45)c3)ccnc2c1
360

Query: IC50; subject: c1ccc2c(NCCCCCN(CCCNc3ccnc4ccccc34)c3cc(OCCCNc4ccnc5ccccc45)cc(OCCCNc4ccnc5ccccc45)c3)ccnc2c1
93

Query: IC50; subject: CC[n+]1ccc(NCCCOc2cccc(OCCCNc3cc[n+](CC)c4ccccc34)c2OCCCNc2cc[n+](CC)c3ccccc23)c2ccccc21
86
